# run.description: Whole-blood PK study (IV, IP and PO) in male CD-1 mice
# Type: in vivo, mouse
# applied.conditions: male, CD-1, whole blood; mouse blood, IP 10 mg/kg, individual animals 4-6
readout.type: Tmax (min)
Dear colleague, please return just the value in min, with no unit written.

GET /value?item= "COc1cc(C(=O)/C=C/c2ccc(F)cc2)cc(OC)c1OC" &field=Tmax returns 15

====

# run.description: Whole-blood PK study (IV, IP and PO) in male CD-1 mice
# Format: in vivo, mouse
# applied.conditions: male, CD-1, mouse, whole blood, iv, 1 mg/kg, whole blood, male CD-1 mouse, IV 1 mg/kg, average; read-out: Vss
readout.type: Vd (L/kg)
Dear colleague, please return just the value in L/kg, with no unit written.

GET /value?item= "COc1cc(C(=O)/C=C/c2ccc(F)cc2)cc(OC)c1OC" &field=Vd returns 32.6

Data credit: paper PMC5823406
